Test system: Erysiphe polygoni
assay_text: Spore germination test
Format: cell-based
condition_info: EP, 40 ppm, 48 hours
measurement_name: Spore Germination Rating

Request: Spore Germination Rating lookup needed for Nc1ccc(Oc2nsnc(Cl)c2=O)cc1 , thanks.
Response: 4 (80-100)

Request: Spore Germination Rating lookup needed for O=C(O)Cc1ccccc1Oc1nsnc(Cl)c1=O , thanks.
Response: 2 (40-60)

Request: Spore Germination Rating lookup needed for COc1cc(Oc2nsnc(Cl)c2=O)cc(OC)c1C(C)=O , thanks.
Response: 0 (0-10)

Request: Spore Germination Rating lookup needed for O=c1c(Cl)nsnc1Oc1ccccc1Br , thanks.
Response: 0 (0-10)

Request: Spore Germination Rating lookup needed for O=c1c(Cl)nsnc1Oc1cccc(Cl)c1Cl , thanks.
Response: 0 (0-10)

Request: Spore Germination Rating lookup needed for O=C(Nc1ccccc1)Nc1ccc(Oc2nsnc(Cl)c2=O)cc1 , thanks.
Response: 1 (10-40)

Request: Spore Germination Rating lookup needed for O=C(Nc1ccccc1)Oc1ccc(Oc2nsnc(Cl)c2=O)cc1 , thanks.
Response: 3 (60-80)

Request: Spore Germination Rating lookup needed for O=c1c(Cl)nsnc1Oc1cccc(Cl)c1 , thanks.
Response: 0 (0-10)

Request: Spore Germination Rating lookup needed for O=C(OCc1ccccc1)Oc1ccc(Oc2nsnc(Cl)c2=O)cc1 , thanks.
Response: 4 (80-100)

Request: Spore Germination Rating lookup needed for O=c1c(Cl)nsnc1Oc1ccccc1Cl , thanks.
Response: 0 (0-10)

Request: Spore Germination Rating lookup needed for O=C(O)c1ccc(Oc2nsnc(Cl)c2=O)cc1 , thanks.
Response: 2 (40-60)

Request: Spore Germination Rating lookup needed for Cc1cc(Cl)c(Oc2nsnc(Cl)c2=O)cc1C , thanks.
Response: 0 (0-10)

Request: Spore Germination Rating lookup needed for O=c1c(Cl)nsnc1Oc1ccccc1 , thanks.
Response: 1 (10-40)

Request: Spore Germination Rating lookup needed for Cc1ccccc1Oc1nsnc(Cl)c1=O , thanks.
Response: 1 (10-40)

Request: Spore Germination Rating lookup needed for C[S+]([O-])c1ccc(Oc2nsnc(Cl)c2=O)cc1 (stereo not shown) , thanks.
Response: 1 (10-40)

Request: Spore Germination Rating lookup needed for Cc1cc(Oc2nsnc(Cl)c2=O)ccc1Cl , thanks.
Response: 0 (0-10)

Request: Spore Germination Rating lookup needed for CNC(=O)Nc1ccc(Oc2nsnc(Cl)c2=O)cc1 , thanks.
Response: 4 (80-100)

Request: Spore Germination Rating lookup needed for CC(=O)Nc1ccc(Oc2nsnc(Cl)c2=O)cc1 , thanks.
Response: 2 (40-60)

Request: Spore Germination Rating lookup needed for O=c1c(Cl)nsnc1Oc1ccc([N+](=O)[O-])cc1Cl , thanks.
Response: 0 (0-10)

Request: Spore Germination Rating lookup needed for O=c1c(Cl)nsnc1Oc1ccc(Cl)c(Cl)c1 , thanks.
Response: 4 (80-100)

Request: Spore Germination Rating lookup needed for COc1cc(Cl)cc(Oc2nsnc(Cl)c2=O)c1 , thanks.
Response: 0 (0-10)

Request: Spore Germination Rating lookup needed for O=c1c(Cl)nsnc1Oc1ccc(O)cc1 , thanks.
Response: 1 (10-40)
